Origin of measurements: paper PMC6163080

test: Stability of CLBQ14 in rat plasma samples; format: in vitro ADME, Sprague Dawley rat; details: Sprague Dawley, rat, Processed sample or auto-sampler stability, mean recovery ± SD, No IS
quantity measured: recovery at 2 h (%)
Numbers only here, please. The scale is %.

Measured recovery at 2 h, `Oc1c(Br)cc(Cl)c2cccnc12` : 97.8

###

test: Pharmacokinetic study, single IV bolus in adult male Sprague Dawley rats; type: in vivo; conditions: male, Sprague Dawley, rat, plasma, iv, 5 mg/kg
quantity measured: C0 (µg/mL)
Numbers only here, please. The scale is µg/mL.

Measured C0, `Oc1c(Br)cc(Cl)c2cccnc12` : 3.24
